Would you kindly list CC50 at 24 h for each of these compounds?
- assayRemarks: in vitro
- Format: cell-based
One number for each entry, in µM.

Answered cases to consult:
In [3]: df
Out[3]:
                                 testsmiles  unitspec  experimentalresult
0         COc1cccc(C2=CC(=O)c3ccccc3C2=O)c1        µM                 8.3
1  Cc1cc([N+](=O)[O-])ccc1C1=CC(=O)c2ccccc2C1=O        µM                 6.8
2  O=C1C=C(c2ccc(C(F)(F)F)cc2)C(=O)c2ccccc21        µM                 6.8
3          Cc1cccc(C2=CC(=O)c3ccccc3C2=O)c1        µM                14.3
4         COc1ccc(C2=CC(=O)c3ccccc3C2=O)cc1        µM                  34
5    COC(=O)c1ccc(C2=CC(=O)c3ccccc3C2=O)cc1        µM                30.6
6        O=C1C=C(c2ccccc2)C(=O)c2c(O)cccc21        µM                 6.4
7          Cc1ccc(C2=CC(=O)c3ccccc3C2=O)cc1        µM                24.6

# batch: return CC50 at 24 h for each of the 2 compounds below
1. Cc1ccc(C2=CC(=O)c3c(O)cccc3C2=O)cc1
2. O=C1C=C(c2ccccc2)C(=O)c2ccccc21

Reply:
1. 4.8
2. 9.4
